target: UniProt P52699; experiment: Enzyme activity: determination of IC50, fluorescence assay with CCF2-FA substrate; type: biochemical; settings: enzyme 2 pM, CCF2-FA 1.25 μM, 2 hours at 25° C.; read-out: IMP1 IC50
Define the label as criterion met when IC50 is strictly less than 2 µM and as criterion not met in all remaining cases.

> print(dat)
                                    compound         classlabel
 1  CC(C)[C@H](C(=O)O)[C@H](Cc1ccc(N2CCC[C@H]2CO)nc1)c1nnn[nH]1 [Example 126]      criterion met
 2  CC(C)C[C@H](C(=O)O)[C@H](Cc1ccc(C2=CCNCC2)cn1)c1nn[nH]n1 [Example 170]  criterion not met
 3  CCC[C@@H](C(=O)O)[C@H](Cc1ccc(-c2ccc(N3CCNCC3)nc2)cc1)c1nnn[nH]1 [Example 57]  criterion not met
 4  CCC[C@H](C(=O)O)[C@H](Cc1ccc(N)nc1)c1nnn[nH]1 [Example 114]  criterion not met
 5  CCC[C@H](C(=O)O)[C@H](Cc1ccc2ncc(N)cc2c1)c1nnn[nH]1 [Example 148]      criterion met
 6  CC(C)[C@H](C(=O)O)[C@H](CC1CCNCC1)c1nnn[nH]1 [Example 89]  criterion not met
 7  CCC[C@H](C(=O)O)[C@H](Cc1ccc(C(N)=O)cn1)c1nnn[nH]1 [Example 93]  criterion not met
 8  CCC[C@H](C(=O)O)[C@H](Cc1ccccc1)c1nnn[nH]1 [Example 4]      criterion met
 9  CCC[C@H](C(=O)O)[C@H](Cc1ccc(NCCO)nc1)c1nnn[nH]1 [Example 129]      criterion met
10  CC(C)[C@H](C(=O)O)[C@H](Cc1ccc(-c2cn[nH]c2)cc1)c1nnn[nH]1 [Example 62]      criterion met
11  CCC[C@H](C(=O)O)[C@H](Cc1ccc(-c2cccc(C(N)=O)c2)cc1)c1nn[nH]n1 [Example 201]      criterion met
12  CCC[C@H](C(=O)O)[C@H](Cc1ccc(C#N)cc1)c1nn[nH]n1 [Example 40]  criterion not met
13  CCC[C@H](C(=O)O)[C@H](Cc1ccc(NCCS(N)(=O)=O)cn1)c1nnn[nH]1 [Example 149]      criterion met
14  O=C(O)[C@@H](C1CCCC1)[C@H](Cc1ccc(C2CCNC2)cc1)c1nnn[nH]1 (some centres unmarked) [Example 79]      criterion met
15  O=C(O)CCCC[C@H](C(=O)O)[C@H](Cc1ccccc1)c1nnn[nH]1 [Example 34]      criterion met
16  NC(=O)CCCC[C@H](C(=O)O)[C@H](Cc1ccccc1)c1nnn[nH]1 [Example 35]  criterion not met
17  CC(C)[C@H](C(=O)O)[C@H](Cc1ccc(C2=CCNCC2)cc1)c1nnn[nH]1 [Example 59]      criterion met

###

biological target: IMP-1 (Serratia marcescens, UniProt P52699); assay: Enzyme activity: determination of IC50, fluorescence assay with CCF2-FA substrate; format: biochemical; details: IMP-1 enzyme 2 pM, CCF2-FA 1.25 μM, 2 hours at 25° C.; read-out: IMP1 IC50
Sequence (P52699 19-246, looked up, species assumed): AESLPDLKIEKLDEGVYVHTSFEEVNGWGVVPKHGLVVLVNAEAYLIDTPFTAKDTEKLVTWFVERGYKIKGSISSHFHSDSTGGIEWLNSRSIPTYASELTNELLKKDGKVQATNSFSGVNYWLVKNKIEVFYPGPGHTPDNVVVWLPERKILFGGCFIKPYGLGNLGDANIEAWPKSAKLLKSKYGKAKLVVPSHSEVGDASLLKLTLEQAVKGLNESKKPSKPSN
Measured log10(IC50) accompanies every entry in the list below.
readoutType: log10(IC50) (log10 of the value in nM)

compound	log10(IC50)
CC(C)C[C@H](C(=O)O)[C@H](Cc1ccc(N2CCC(N)C2)nc1)c1nnn[nH]1 (stereo partly shown)	3.26
CC(C)(C)[C@H](C(=O)O)[C@H](Cc1ccc(C2CCNC2)cc1)c1nnn[nH]1.O=C(O)C(F)(F)F (stereo partly shown) [Example 431, 2,2,2-trifluoroacetate]	1.51
CC(C)C[C@H](C(=O)O)[C@H](Cc1ccc(N[C@H]2CC[C@H](N)C2)nc1)c1nnn[nH]1	3.20
CCC[C@H](C(=O)O)C(Cc1ccccc1C(F)(F)F)c1nnn[nH]1 (stereo in doubt)	3.43
CC(C)C[C@H](C(=O)O)[C@H](Cc1ccc(Oc2ccccc2C2CCCN2)nc1)c1nn[nH]n1 (stereo partly shown) [Example 374]	1.95
CC(C)C[C@H](C(=O)O)[C@H](Cc1ccc(COCC2CCNCC2)c(F)c1)c1nn[nH]n1.O=C(O)C(F)(F)F [Example 442, 2,2,2-trifluoroacetate]	2.04
CC(C)C[C@H](C(=O)O)[C@H](Cc1ccc(CN2CCC(N)CC2)c(F)c1)c1nn[nH]n1.O=C(O)C(F)(F)F [Example 444, 2,2,2-trifluoroacetate]	2.33
